Where do the numbers come from? From paper PMC3978094.

Target: GATA3 DBD (N- and C-finger) (human, UniProt P23771-2 260-370)
Assay: SPR
VALUE_KIND: Kd

Form field Kd, entry single GATA site SPR probe (dsDNA) DNA 1: CTCCCGCTCGCTCAGAGATAAGGCCTTAT DNA 2: ATAAGGCTTTATCTCTGAGCGAGCGGGAG : ~60 nM
